- Test system: NCI-H292 lung cancer cells
- Measurement Description: FDA drug screening, complete media vs cholesterol-free media without statin (TABLE 1)
- Format: cell-based, human
- Study Conditions: Complete minus Cholesterol-free; >0 enhanced anti-cancer activity, about 0 neutral, <0 antagonist
Where a name gives a salt, the structure may show the parent alone.
Parameter: Difference
Would you mind answering with just the numeric figure?

| Compound | Difference |
| --- | --- |
| N=C1CCCN1Cc1nc(O)nc(O)c1Cl [Tipiracil (hydrochloride)] | 0.03 |
| Cc1ccccc1C(=O)Nc1ccc(C(=O)N2CCCC(O)c3cc(Cl)ccc32)c(C)c1 (stereo not shown) | −0.06 |
| CCOc1ccccc1C(N)=O [2-Ethoxybenzamide] | −0.07 |

Please examine the following record next.
Give the measured Difference of CCOC(=O)C1=C(C)NC(C)=C(C(=O)OC)C1c1cccc(Cl)c1Cl (stereo not shown) . −0.19

---

- System: NCI-H292 lung cancer cells
- Measurement Description: FDA drug screening, complete media vs cholesterol-free media with simvastatin (TABLE 2)
- Format: cell-based, human
- Study Conditions: complete media minus cholesterol-free media + simvastatin (0.04 μM); […]
Counter-ions that a name gives are not always drawn.
Parameter: Difference
Would you mind answering with just the numeric figure?

| Compound | Measured Target | Result Value |
| --- | --- | --- |
| CC(=O)O[C@H]1[C@H]2O[C@]23[C@@H]2CC[C@]4(O)C[C@@H](O)CC[C@]4(C)[C@H]2CC[C@]3(C)[C@H]1c1ccc(=O)oc1 | NCI-H292 lung cancer cells | −0.02 |

Give the measured Difference of "CC[C@H]1[C@@H]2C[C@H]3[C@@H]4N(C)c5ccccc5[C@]45C[C@@H]([C@H]2[C@H]5O)N3[C@@H]1O" . 0.00

Give the measured Difference of COc1cccc2c1C(=O)c1c(O)c3c(c(O)c1C2=O)C[C@@](O)(C(C)=O)C[C@@H]3O[C@H]1C[C@H](N)[C@H](O)[C@H](C)O1 [Daunorubicin (Hydrochloride)] . −0.01

Give the measured Difference of "COc1cc([C@@H]2c3cc4c(cc3[C@H](O)[C@H]3COC(=O)[C@H]23)OCO4)cc(OC)c1OC" . −0.05

Give the measured Difference of "COC(=O)N[C@H](C(=O)N1CCC[C@H]1C(=O)Nc1ccc([C@@H]2CC[C@@H](c3ccc(NC(=O)[C@@H]4CCCN4C(=O)[C@@H](NC(=O)OC)C(C)C)cc3)N2c2ccc(C(C)(C)C)cc2)cc1)C(C)C" . −0.07

Give the measured Difference of CC(COc1ccccc1)N(CCCl)Cc1ccccc1 (stereo not shown) [Phenoxybenzamine (hydrochloride)] . −0.02

Give the measured Difference of Cl.N=C(N)NCCC[C@H](N)C(=O)O [L-Arginine (hydrochloride)] . −0.01

Give the measured Difference of O=C(CNC(=O)c1ccc(C2=NOC(c3cc(Cl)cc(C(F)(F)F)c3)(C(F)(F)F)C2)c2ccccc12)NCC(F)(F)F (stereo not shown) . −1.05

Give the measured Difference of CC(Cc1ccc(O)cc1)NCC(O)c1cc(O)cc(O)c1 (stereo not shown) [Fenoterol (hydrobromide)] . 0.00

Give the measured Difference of COc1cccc2c1C(=O)c1c(O)c3c(c(O)c1C2=O)C[C@@](O)(C(=O)CO)C[C@@H]3O[C@H]1C[C@H](N)[C@H](O[C@@H]2CCCCO2)[C@H](C)O1 [Pirarubicin (Hydrochloride)] . −0.03

Give the measured Difference of COc1cc2c(cc1OC)-c1cc3ccc(OC)c(OC)c3c[n+]1CC2.[Cl-] [Palmatine (chloride)] . −0.06

Give the measured Difference of CC(C)[C@]12O[C@H]1[C@@H]1O[C@]13[C@]1(O[C@H]1C[C@H]1C4=C(CC[C@@]13C)C(=O)OC4)[C@@H]2O [Triptolide] . −0.03

Give the measured Difference of C[C@@H]1O[C@@H](O[C@H]2C[C@@H](O)[C@]3(CO)[C@H]4[C@H](O)C[C@]5(C)[C@@H](C6=CC(=O)OC6)CC[C@]5(O)[C@@H]4CC[C@]3(O)C2)[C@H](O)[C@H](O)[C@H]1O.O.O.O.O.O.O.O.O [Ouabain (Octahydrate)] . −0.01
